Target: T1, Aptx full-length WT (Schizosaccharomyces pombe, UniProt O74859 1-232)
T1 sequence: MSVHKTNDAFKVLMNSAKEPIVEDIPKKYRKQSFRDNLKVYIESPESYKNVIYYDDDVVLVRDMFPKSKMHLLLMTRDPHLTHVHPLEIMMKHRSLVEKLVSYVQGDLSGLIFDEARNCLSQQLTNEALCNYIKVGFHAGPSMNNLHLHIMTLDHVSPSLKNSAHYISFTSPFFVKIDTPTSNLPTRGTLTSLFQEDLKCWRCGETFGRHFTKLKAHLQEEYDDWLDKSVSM
Experiment: fluorescence polarization
Measurement Type: pKd
Please express pKd as -log10 of the molar concentration.

Binder: 39-mer dsDNA (dsDNA) DNA 1: CAGAGTCATAATATGCAGGTGCAGGTTATTCATGCTCGG DNA 2: CCGAGCATGAATAACCTGCACCTGCATATTATGACTCTG
pKd: 6.72

Binder: CAGAGTCATAATATGCAGGTGCAGGTTATTCATGCTCGG (ssDNA) [39-mer ssDNA]
pKd: 6.48

// next item, pKd requested
Problem: Can you look up the measured pKd of SSB 39-mer (1-nt gap, 3'- and 5'-phosphates) (dsDNA, 3'-phosphate on S5; 5'-phosphate on S6) DNA 1: CCGAGCATGAATAACCTGCACCTGCATATTATGACTCTG DNA 2: CAGAGTCATAATATGCAGG DNA 3: GCAGGTTATTCATGCTCGG for me?
Solution: 7.10
